ASSAY TARGET: wildtype LRRK2 (Homo sapiens, UniProt Q5S007)
Construct: expressed in transfected cells; host or cells: HEK293 (ATCC CRL-1573), transient transfection, mammalian expression vector with ubiquitin promoter
Sequence (Q5S007 whole entry): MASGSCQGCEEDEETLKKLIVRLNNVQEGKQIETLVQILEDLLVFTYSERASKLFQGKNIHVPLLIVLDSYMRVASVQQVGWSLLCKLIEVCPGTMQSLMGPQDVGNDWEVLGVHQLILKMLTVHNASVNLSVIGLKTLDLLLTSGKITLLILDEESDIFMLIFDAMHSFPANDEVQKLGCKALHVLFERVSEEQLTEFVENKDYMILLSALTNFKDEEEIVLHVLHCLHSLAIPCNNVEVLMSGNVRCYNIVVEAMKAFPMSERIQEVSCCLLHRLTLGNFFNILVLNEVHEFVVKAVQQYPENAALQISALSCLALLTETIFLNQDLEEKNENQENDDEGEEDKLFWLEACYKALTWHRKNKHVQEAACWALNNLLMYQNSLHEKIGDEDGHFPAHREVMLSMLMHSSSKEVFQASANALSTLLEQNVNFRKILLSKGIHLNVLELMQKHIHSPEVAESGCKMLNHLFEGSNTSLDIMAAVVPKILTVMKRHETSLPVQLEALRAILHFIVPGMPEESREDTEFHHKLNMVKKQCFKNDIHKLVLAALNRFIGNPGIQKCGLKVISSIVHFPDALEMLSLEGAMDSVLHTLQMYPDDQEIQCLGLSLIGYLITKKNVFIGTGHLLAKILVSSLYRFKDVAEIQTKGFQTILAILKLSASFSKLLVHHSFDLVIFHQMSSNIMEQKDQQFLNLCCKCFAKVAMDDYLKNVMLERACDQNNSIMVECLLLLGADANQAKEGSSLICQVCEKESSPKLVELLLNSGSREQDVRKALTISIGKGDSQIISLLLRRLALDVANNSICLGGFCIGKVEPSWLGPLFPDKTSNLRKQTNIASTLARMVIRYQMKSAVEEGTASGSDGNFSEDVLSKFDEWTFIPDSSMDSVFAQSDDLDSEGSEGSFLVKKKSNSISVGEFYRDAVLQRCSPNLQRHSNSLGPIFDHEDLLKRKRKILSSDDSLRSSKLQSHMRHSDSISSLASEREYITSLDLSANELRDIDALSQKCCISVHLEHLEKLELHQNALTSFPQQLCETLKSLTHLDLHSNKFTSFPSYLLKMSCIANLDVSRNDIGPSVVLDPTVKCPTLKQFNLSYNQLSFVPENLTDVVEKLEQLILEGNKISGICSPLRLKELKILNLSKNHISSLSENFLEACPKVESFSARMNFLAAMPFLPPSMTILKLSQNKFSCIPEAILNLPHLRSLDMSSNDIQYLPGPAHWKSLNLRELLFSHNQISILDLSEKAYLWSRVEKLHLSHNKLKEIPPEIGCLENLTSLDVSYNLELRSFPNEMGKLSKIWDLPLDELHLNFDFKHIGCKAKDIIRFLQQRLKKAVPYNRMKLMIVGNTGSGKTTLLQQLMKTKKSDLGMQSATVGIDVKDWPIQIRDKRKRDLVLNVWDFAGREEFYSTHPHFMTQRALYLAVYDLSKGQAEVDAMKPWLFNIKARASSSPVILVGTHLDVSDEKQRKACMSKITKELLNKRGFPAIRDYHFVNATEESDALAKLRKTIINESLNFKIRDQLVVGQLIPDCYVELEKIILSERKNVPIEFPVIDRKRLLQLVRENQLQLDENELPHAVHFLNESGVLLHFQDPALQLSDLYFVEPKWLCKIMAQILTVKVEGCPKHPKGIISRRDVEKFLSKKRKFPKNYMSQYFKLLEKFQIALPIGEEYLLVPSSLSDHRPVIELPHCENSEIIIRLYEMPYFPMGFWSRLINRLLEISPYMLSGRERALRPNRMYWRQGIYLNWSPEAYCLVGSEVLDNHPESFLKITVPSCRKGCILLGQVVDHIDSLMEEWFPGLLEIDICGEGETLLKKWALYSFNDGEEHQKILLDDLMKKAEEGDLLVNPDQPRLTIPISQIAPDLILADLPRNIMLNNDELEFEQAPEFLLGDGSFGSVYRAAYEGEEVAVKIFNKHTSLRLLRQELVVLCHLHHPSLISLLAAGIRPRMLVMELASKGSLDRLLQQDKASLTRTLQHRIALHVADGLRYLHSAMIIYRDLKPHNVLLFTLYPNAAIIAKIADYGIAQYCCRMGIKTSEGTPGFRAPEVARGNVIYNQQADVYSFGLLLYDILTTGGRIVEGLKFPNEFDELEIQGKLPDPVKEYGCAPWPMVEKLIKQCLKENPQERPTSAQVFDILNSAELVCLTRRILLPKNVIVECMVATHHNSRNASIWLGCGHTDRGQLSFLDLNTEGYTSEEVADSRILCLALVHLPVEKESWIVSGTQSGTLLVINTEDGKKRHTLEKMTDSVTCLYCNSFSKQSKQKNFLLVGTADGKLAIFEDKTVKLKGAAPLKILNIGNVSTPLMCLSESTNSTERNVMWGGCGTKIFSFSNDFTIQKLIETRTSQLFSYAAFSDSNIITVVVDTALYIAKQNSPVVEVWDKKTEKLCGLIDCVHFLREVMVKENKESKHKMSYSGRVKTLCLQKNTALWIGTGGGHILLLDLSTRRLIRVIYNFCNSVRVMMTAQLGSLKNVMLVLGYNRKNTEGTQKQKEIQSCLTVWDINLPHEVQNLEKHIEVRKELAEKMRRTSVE
PROTOCOL SUMMARY: LRRK2 degradation assay, HiBit-tagged wildtype LRRK2 expressed from plasmid in HEK293 cells (Nano-Glo Dual-Luciferase)
Type: cell-based
RUN CONDITIONS: HiBit-tagged wildtype LRRK2 in HEK293 cells, 24 hours; read-out: **WT Dmax (%)
OBSERVED PROPERTY: Dmax

{"columns": ["COMPOUND", "OBSERVED PROPERTY", "MEASURED VALUE"],
 "data": [
  ["C[C@H]1CN(c2cc(-c3n[nH]c4ccc(OC5(C)CC5)cc34)ncn2)CCN1CC1CCN(CC2(F)CCN(c3ccc4c(c3)C(=O)N(C3CCC(=O)NC3=O)C4=O)CC2)CC1 (some centres unmarked)", "Dmax", "< 50%"],
  ["C[C@H]1CN(c2cc(-c3n[nH]c4ccc(OC5(C)CC5)cc34)ncn2)CCN1CC1CCN(CCCOc2cccc3c2C(=O)N(C2CCC(=O)NC2=O)C3=O)CC1 (some centres unmarked)", "Dmax", "< 50%"],
  ["C[C@H]1CN(c2cc(-c3n[nH]c4ccc(OC5CC5)cc34)ncn2)CCN1CC1CCN(CC2CCN(c3ccc4c(c3)C(=O)N(C3CCC(=O)NC3=O)C4=O)CC2)CC1 (some centres unmarked)", "Dmax", "50 to 70%"],
  ["CC1(Oc2ccc3[nH]nc(-c4cc(N5CCC(C(=O)N6CCC(CN7CCN(c8ccc9c(c8)C(=O)N(C8CCC(=O)NC8=O)C9=O)CC7)CC6)CC5)ncn4)c3c2)CC1 (centres unmarked)", "Dmax", "50 to 70%"]
]}

Now for another entry.
Reported Dmax, compound CC1(Oc2ccc3[nH]nc(-c4cc(N5CCC(O[C@H]6C[C@H](OC7CCN(c8ccc9c(c8)C(=O)N(C8CCC(=O)NC8=O)C9=O)CC7)C6)CC5)ncn4)c3c2)CC1 (some centres unmarked) : ____
< 50%

Data provenance is patent US12559506B2.
